Assay: chemical genetic growth profiling, strain panel (AID 1159580);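 also: tested at 20 µM; growth read once vehicle control cultures reached saturation at 30 °C; 1 = growth at the plate median or of vehicle wells; lower values mean less growth of the strain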
Details: S. cerevisiae deletion strains, growth OD, locus YDR159W, strain sac3, hits give low values
Counter-ions that a name gives are not always drawn. In all, about 5,500 compounds went through this assay and about 2,000 (36%) were called active. Roughly 18% stayed inconclusive and do not appear here. The list shows a part of the results. Where a SMILES comes first, the peptide text is derived from it. The star is where a group is joined. Tfa = O=C(C(F)(F)F)*
Reported normalized growth by item:
Output spec: single numeric token, no unit.

COc1ccc(CCN2CCC(Nc3nc4ccccc4n3Cc3ccc(F)cc3)CC2)cc1	0.986

Request: Write down normalized growth measured for item CC(C)NC[C@H](O)COc1cccc2ccccc12
Response: 0.976

Request: Write down normalized growth measured for item CCCC(=O)O[C@]1(C(=O)CO)CCC2[C@@H]3CCC4=CC(=O)CC[C@]4(C)C3[C@@H](O)C[C@@]21C (stereo partly drawn)
Response: 0.998

Request: Write down normalized growth measured for item CC(C)NNC(=O)c1ccncc1
Response: 0.978

Request: Write down normalized growth measured for item O=C1NC(=O)C(=O)C(=O)N1
Response: 0.986

Request: Write down normalized growth measured for item CCOC(=O)Nc1nc2ccccc2[nH]1
Response: 0.979

Request: Write down normalized growth measured for item CC(C)C(NC(=O)C(Cc1ccc(O)cc1)NC(=O)C(NC(=O)C(F)(F)F)C(C)C)C(=O)O (stereo not drawn) (Tfa-Val-Tyr-Val-OH; configuration not given here)
Response: 0.979

----------
Assay: chemical genetic growth profiling, strain panel (AID 1159580)
Settings: S. cerevisiae deletion strains, growth OD, locus YPR141C, strain kar3, hits give low values
The campaign covered roughly 5,500 compounds. About 2,000 (36%) were called active. Another 18% or so got no clear call; they are omitted. The list shows a part of the results.
Criterion: normalized growth strictly under 1. Met: rule met. Not met: rule not met.

# count of solved cases: 2
CC[C@H](C)C(=O)O[C@H]1CCC=C2C=C[C@H](C)C(CCC3C[C@@H](O)CC(=O)O3)[C@H]21 (some centres not stated)	rule met
O=C(O)c1ccccc1-c1c2cc(Br)c(=O)cc-2oc2[c]([Hg])c(O)c(Br)cc12	rule met

Request: Is 1 strictly greater than the molecule's reported normalized growth? molecule: C=CCSCC1Nc2cc(Cl)c(S(N)(=O)=O)cc2S(=O)(=O)N1 (configuration not stated)
Response: rule not met

Request: Is 1 strictly greater than the molecule's reported normalized growth? molecule: CC(=O)N[C@@H](CS)C(=O)O
Response: rule not met

Request: Is 1 strictly greater than the molecule's reported normalized growth? molecule: Cn1c(=O)c2[nH]cnc2n(C)c1=O
Response: rule met

Request: Is 1 strictly greater than the molecule's reported normalized growth? molecule: Oc1ccc(Cl)cc1Cc1cc(Cl)ccc1O
Response: rule met

Request: Is 1 strictly greater than the molecule's reported normalized growth? molecule: Cc1ccc(Cl)c(Nc2ccccc2C(=O)O)c1Cl
Response: rule met

----------
Test: chemical genetic growth profiling, strain panel (AID 1159580)
Settings: S. cerevisiae deletion strains, growth OD, locus YER155C, strain BEM2 (second series), hits give low values
The whole screen tested about 5,500 compounds, of which about 2,000 (36%) were called active. Not shown: some 18% with an inconclusive outcome. This is one part of the list.
readout.kind: normalized growth
Output spec: single numeric token, no unit.

Known results for compounds:
CC(C)NCC(O)c1cc(O)cc(O)c1 (stereo not given)	1
O=C(O)CN(CC(=O)O)Cc1cc2c(-c3ccccc3C(=O)O)c3cc(CN(CC(=O)O)CC(=O)O)c(=O)cc-3oc2cc1O	1
COC(=O)C(C)c1ccc(C(=O)c2cccs2)cc1 (stereo not given)	1.01
COC(=O)C(O)c1ccccc1 (stereo not given)	0.978

Now for another entry.
Request: Write down normalized growth measured for item C=CC(N)CCC(=O)O (stereo not given)
Response: 0.988

----------
Test: chemical genetic growth profiling, strain panel (AID 1159580)
Conditions: S. cerevisiae deletion strains, growth OD, locus YML016C, strain PPZ1, hits give low values
Out of some 5,500 compounds screened, about 2,000 (36%) were called active. Roughly 18% stayed inconclusive and do not appear here. Some of the results follow.
readout.kind: normalized growth
Output spec: single numeric token, no unit.

Request: Write down normalized growth measured for item C=C1CCC2C(CC2(C)C)C(=C)CC/C1=N\O (centres undefined)
Response: 0.999

Request: Write down normalized growth measured for item COc1ccc(CCN2CCC(Nc3nc4ccccc4n3Cc3ccc(F)cc3)CC2)cc1
Response: 0.979

Request: Write down normalized growth measured for item C=C1C(C)C2C(Cc3ccccc3)NC(=O)C23OC(=O)/C=C/C(=O)CCCC(C)C/C=C/C3C1O (centres undefined)
Response: 1

Request: Write down normalized growth measured for item CC1(C)O[C@@H]2CC3C4CCC5=CC(=O)CCC5(C)C4(F)C(O)CC3(C)[C@]2(C(=O)CCl)O1 (some centres undefined)
Response: 1

----------
Reported normalized growth by item:
Experiment: chemical genetic growth profiling, strain panel (AID 1159580)
Conditions: S. cerevisiae deletion strains, growth OD, locus YMR223W, strain ubp8, hits give low values
The campaign covered roughly 5,500 compounds. About 2,000 (36%) were called active. Roughly 18% stayed inconclusive and do not appear here. Some of the results follow.
Output spec: single numeric token, no unit.

CCCCN1CCCCC1C(=O)Nc1c(C)cccc1C (centres undefined)	1.01
C=C1C(=O)OC2CC1C(OC(C)=O)C/C(C)=C/CC/C(C)=C/CC[C@]2(C)O (some centres undefined)	1
O=C(O)c1cc2cc(Cc3cccnc3)ccc2o1	0.995

Now for another entry.
Request: Write down normalized growth measured for item CC(C)C(=O)Nc1ccc([N+](=O)[O-])c(C(F)(F)F)c1
Response: 0.982

----------
Assay: chemical genetic growth profiling, strain panel (AID 1159580)
Settings: S. cerevisiae deletion strains, growth OD, locus YOR001W, strain rrp6
About 2,000 (36%) of roughly 5,500 compounds were called active. Inconclusive results (about 18%) are left out. Rule as the data show it: active = normalized growth mostly below about 0.91 (no sharp cut-off); inconclusive = no clear call, values can overlap the other calls; inactive = mostly above about 0.92. Some of the results follow.
Give your call using only these classes: 1.0 for active, 0.0 for inactive

C=CCCCCCCCCCCCC(O)CC(O)COC(C)=O (configuration not stated) (tested in a mixture with another compound)	0.0
C=C1CCC2C(CC2(C)C)C(=C)CC/C1=N\O (configuration not stated)	0.0
CC(C)NCC(O)COc1cccc2ccccc12 (configuration not stated)	0.0
CC[N+](CC)(CC)CCOc1cccc(OCC[N+](CC)(CC)CC)c1OCC[N+](CC)(CC)CC	0.0
Oc1ccc(Cl)cc1Cc1cc(Cl)ccc1O	1.0

Request: Query: recorded result category for CC(C)NC[C@H](O)COc1cccc2ccccc12 in this test
Response: 0.0

Request: Query: recorded result category for CC(=O)OCC(OC(C)=O)C(OC(C)=O)C(OC(C)=O)C(OC(C)=O)C(COC(C)=O)OC(C)=O (configuration not stated) in this test
Response: 0.0

----------
Reported normalized growth by item:
Assay: chemical genetic growth profiling, strain panel (AID 1159580);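 also: tested at 20 µM; growth read once vehicle control cultures reached saturation at 30 °C; 1 = growth at the plate median or of vehicle wells; lower values mean less growth of the strain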
Details: S. cerevisiae deletion strains, growth OD, locus YLR221C, strain rsa3, hits give low values
In all, about 5,500 compounds went through this assay and about 2,000 (36%) were called active. About 18% were inconclusive and are not listed. The list shows a part of the results.
Output spec: single numeric token, no unit.

Request: Write down normalized growth measured for item O=C(O)CN(CC(=O)O)Cc1cc2c(-c3ccccc3C(=O)O)c3cc(CN(CC(=O)O)CC(=O)O)c(=O)cc-3oc2cc1O
Response: 0.984

----------
Reported normalized growth by item:
Test: chemical genetic growth profiling, strain panel (AID 1159580);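 also: tested at 20 µM; growth read once vehicle control cultures reached saturation at 30 °C; 1 = growth at the plate median or of vehicle wells; lower values mean less growth of the strain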
Conditions: S. cerevisiae deletion strains, growth OD, locus YGR078C, strain PAC10, hits give low values
The whole screen tested about 5,500 compounds, of which about 2,000 (36%) were called active. Another 18% or so got no clear call; they are omitted. This is one part of the list.
Output spec: single numeric token, no unit.

Known results for molecules:
CC(C)C(C)/C=C/C(C)[C@H]1CCC2C3=CCC4CC(=O)CC[C@]4(C)C3CC[C@@]21C (stereo not given in full)	1.01
CCOC(=O)Nc1ccsc1C(=O)OC	0.986
Oc1ccc(Cl)cc1Cc1cc(Cl)ccc1O	0.0754
O=C(c1ccccc1)c1cc2c(cc1Br)OCCO2	0.922
CC1CNCCN1S(=O)(=O)c1cccc2cnccc12 (stereo not given)	1.01
CC(C)n1cc(C#N)c(=O)n(Cc2ccccc2)c1=O	0.991

Request: Write down normalized growth measured for item Cc1onc(-c2c(F)cccc2Cl)c1C(=O)c1ccc(F)cc1
Response: 0.973

Request: Write down normalized growth measured for item COCCCNC(=S)Nc1ccc(C)cc1C
Response: 0.98

----------
Experiment: chemical genetic growth profiling, strain panel (AID 1159580);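 also: tested at 20 µM; growth read once vehicle control cultures reached saturation at 30 °C; 1 = growth at the plate median or of vehicle wells; lower values mean less growth of the strain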
Details: S. cerevisiae deletion strains, growth OD, locus YHR030C, strain SLT2, hits give low values
Out of some 5,500 compounds screened, about 2,000 (36%) were called active. Another 18% or so got no clear call; they are omitted. This is one part of the list.
Reported normalized growth by item:
Output spec: single numeric token, no unit.

Known results for compounds:
COc1cc([C@@H]2c3cc4c(c(O)c3C[C@H]3COC(=O)[C@@H]32)OCO4)cc(OC)c1OC	0.979
CC1(C)OC(=O)C=CC2(C)C1CC(O)C1(C)C2CCC2(C)C(c3ccoc3)OC(=O)C3OC321 (stereo unspecified)	1.01
O=C(O)CN(CC(=O)O)Cc1cc2c(-c3ccccc3C(=O)O)c3cc(CN(CC(=O)O)CC(=O)O)c(=O)cc-3oc2cc1O	1
C=C1CCC2C(CC2(C)C)C(=O)CCC1O (stereo unspecified)	1.02
O=C(c1ccc(-c2ccccc2)cc1)c1cc2cc([N+](=O)[O-])ccc2o1	1.01

Now for another entry.
Request: Write down normalized growth measured for item C=C1CCC(OC(C)=O)/C(C)=C/C[C@@H]2[C@@H]1CC2(C)C (stereo partly specified)
Response: 1.01
